Hi there, I'd appreciate the recorded GI50 for every entry that follows.
# Test system: LNCaP cells
# method.notes: Cell growth inhibition (MTT colorimetric assay), LNCaP
# Assay type: cell-based, human
# details: Homo sapiens, Table 10, LNCaP low passage, concentration required to inhibit cell growth by 50%, read-out: GI50 Values LNCaP (Low Passage)
Response body: numeric value in nM, unit text excluded.

Problem: Request the reported GI50 associated with CNC(=O)c1ccc(N2C(=S)N(c3ccc(C#N)c(C(F)(F)F)c3)C(=O)C2(C)C)cc1F [MDV3100, reference compound]
Solution: 4850

Problem: So what does the record say about GI50 for C[C@]12CC[C@H](n3ccnc3)CC1=CC[C@@H]1[C@@H]2CC[C@]2(C)C(n3cnc4ccccc43)=CC[C@@H]12 ?
Solution: 810

Problem: Please report the recorded GI50 for C[C@]12CC[C@H](OC(=O)n3ccnc3)CC1=CCC1C2CC[C@]2(C)C(n3cnc4ccccc43)=CCC12 (some centres unmarked) .
Solution: 870

Problem: Fill blank: measured GI50 of the molecule C[C@]12CC[C@H](OCc3ccncc3)CC1=CC[C@@H]1[C@@H]2CC[C@]2(C)C(n3cnc4ccccc43)=CC[C@@H]12 is ____.
Solution: 870

Problem: Tell me the measured GI50 of C[C@]12CC[C@H](O)CC1=CC[C@@H]1[C@@H]2CC[C@]2(C)C(n3cnc4ccccc43)=CC[C@@H]12 , please.
Solution: 2450
